Provenance of the data: ChEMBL document CHEMBL1201862

We begin with a simple list: items and their reported GI50.
system: KM12; test: NCI tumour cell line growth inhibition, 48 h
The source made the active and inactive calls. Cut-off read from the data, not from the text of the source: active = GI50 up to about 1.1 µM and inactive = higher.

Illustrative cases are given below, each with its answer.
>  <molecule>
CC(=O)Nc1ccc2c3c(cc(O)c2c1)N(C(=O)CCCC(=O)Nc1ccc2c4c(cc(O)c2c1)N(C(=O)OC(C)(C)C)CC4CCl)CC3CCl (configuration not stated)

>  <GI50>
2.26 µM (inactive)

$$$$
>  <molecule>
CCOP(=O)(OCC)C1=C(c2ccccc2)OC(N)=C(C#N)C1c1ccc(Cl)cc1 (configuration not stated)

>  <GI50>
> 100 µM (inactive)

$$$$
>  <molecule>
O=C(O)CCCn1nnc2c(=O)[nH][nH]c(=O)c21

>  <GI50>
> 100 µM (inactive)

$$$$

Result for O=C(O)C12C3C4C1C1C2C3C1(Br)C41OCCO1 (configuration not stated) , tested on KM12, GI50: > 100 µM (inactive)

Fill in: KM12 GI50 for C1=C\SS/C=C\SS/C=C\SS/C=C\SS/1 = > 100 µM (inactive)

Field GI50 (KM12), entry C=C1C(=O)OC2C3OC(C)(CCC(O)C3COC(C)=O)CC(OC(=O)/C(=C/C)COC(C)=O)C12 (configuration not stated) : 1.5 µM (inactive)

Considering Cn1ccc(C(=O)NCCCCCNC(=O)c2ccn(C)c(=O)c2O)c(O)c1=O , its GI50 with KM12 was recorded as > 100 µM (inactive)

###

system: EKVX; assay: NCI tumour cell line growth inhibition, 48 h
The source made the active and inactive calls. No stated cut-off is given here; in the data, active = GI50 up to about 1.1 µM and inactive = higher.
Give your call using only these classes: Yes = active, No = inactive

Take a look at these entries with their results.
>  <molecule>
COc1cc(/C=C/c2ccc(O)c(OC)c2)cc(OC)c1

>  <class_name>
No

$$$$
>  <molecule>
CCC(C)C1NC(=O)C(NC(=O)C(CC(C)C)N(C)C(=O)[C@@H]2C=CCN2C(=O)[C@H](C)O)C(C)OC(=O)[C@H](Cc2ccc(OC)cc2)N(C)C(=O)[C@@H]2CCCN2C(=O)[C@H](CC(C)C)NC(=O)C(C)C(=O)[C@H](C(C)C)OC(=O)CC1O (stereo partly drawn)

>  <class_name>
Yes

$$$$
>  <molecule>
C/C(=C\c1ccc2c(c1)OCO2)[N+](=O)[O-]

>  <class_name>
No

$$$$
>  <molecule>
C/C(=N\NC(N)=O)c1sc(-c2nc(C)c(/C(C)=N/NC(N)=O)s2)nc1C

>  <class_name>
No

$$$$
>  <molecule>
COc1cc(O)c2c(=O)cc(C3(OC(C)=O)C=CC(OC4OC(CO)C(O)C(O)C4O)C=C3)oc2c1 (stereo not drawn)

>  <class_name>
No

$$$$
>  <molecule>
O=C(O)CCC1(Br)CCCCC(Br)C1=O (stereo not drawn)

>  <class_name>
No

$$$$
>  <molecule>
CC(=O)Nc1ccc(C(=O)N2N=C(C)/C(=C/c3ccccc3O)C2=O)cc1

>  <class_name>
No

$$$$
>  <molecule>
c1ccc(C[n+]2cccc(-c3cc4ccccc4[nH]3)c2)cc1

>  <class_name>
No

$$$$

Prompt line: Lab log entry: CC1(c2cccc3ccccc23)OC(=O)c2ccccc21 (stereo not drawn) — outcome as called in the assay?
Response line: No

Prompt line: Field: outcome | Entry: CCCCCCCCCC(O)CC(=O)c1c(O)cccc1O (stereo not drawn)
Response line: No

Prompt line: Returns: the outcome recorded for O=C1COc2cc3c(cc2N1)SCC(=O)N3 in this assay.
Response line: No

###

tested on: IGROV-1; assay: NCI tumour cell line growth inhibition, 48 h
The source made the active and inactive calls. Cut-off read from the data, not from the text of the source: active = GI50 up to about 1.1 µM and inactive = higher.
parameter: GI50

>  <compound>
COc1ccc2nc(NC(=O)C(=O)C(C#N)c3ccc([N+](=O)[O-])cc3)sc2c1 (stereo not drawn)

>  <GI50>
> 100 µM (inactive)

$$$$
>  <compound>
O=C(O)c1cc2ccccc2c(/N=N\c2cc(C(F)(F)F)ccc2Cl)c1O

>  <GI50>
95.9 µM (inactive)

$$$$
>  <compound>
Cc1c(C(=O)/C=C/c2ccc([N+](=O)[O-])cc2)[n+]([O-])c2ccccc2[n+]1[O-]

>  <GI50>
55.7 µM (inactive)

$$$$
>  <compound>
O=C1NC(c2ccc3ccccc3c2)Nc2ccccc21 (stereo not drawn)

>  <GI50>
23.6 µM (inactive)

$$$$
>  <compound>
CCCOC(=O)c1cc(C(=CCC[C@H]2CC[C@@]3(C)[C@@H](CC[C@@H]4[C@@H]3CC[C@]3(C)[C@@H](C(C)CCCC(C)C)CC[C@@H]43)C2)c2cc(Cl)c(O)c(C(=O)OCCC)c2)cc(Cl)c1O (stereo partly drawn)

>  <GI50>
> 50 µM (inactive)

$$$$

Noted for COc1ccc2c(c1OCC(=O)O)C(=O)C(CCC(=O)O)CC2 (stereo not drawn) : its GI50 reads > 100 µM (inactive)

Field GI50 (entry O=S(=O)(c1ccccc1)n1cc(C[P+](c2ccccc2)(c2ccccc2)c2ccccc2)c2ccccc21 ) reads 2.08 µM (inactive)

###

Item-by-item account of GI50
tested on: MDA-MB-231; assay: NCI tumour cell line growth inhibition, 48 h
Activity calls are given as the source filed them. No stated cut-off is given here; in the data, active = GI50 up to about 1.1 µM and inactive = higher.

>  <compound>
CC(C)(C)C(=O)OCOP(=O)(OCOC(=O)C(C)(C)C)OCC1OC(n2ccc(=O)[nH]c2=O)C(N=[N+]=[N-])C1O (stereo unspecified)

>  <system>
MDA-MB-231

>  <GI50>
8.79 µM (inactive)

$$$$
>  <compound>
CCC(C)C1NC(=O)C(NC(=O)C(CC(C)C)N(C)C(=O)[C@@H]2C=CCN2C(=O)[C@H](C)O)C(C)OC(=O)[C@H](Cc2ccc(OC)cc2)N(C)C(=O)[C@@H]2CCCN2C(=O)[C@H](CC(C)C)NC(=O)C(C)C(=O)[C@H](C(C)C)OC(=O)CC1O (stereo partly specified)

>  <system>
MDA-MB-231

>  <GI50>
0.00608 µM (active)

$$$$
>  <compound>
c1ccc(NC2(c3nnnn3C3CCCCC3)CCNCC2)cc1

>  <system>
MDA-MB-231

>  <GI50>
39.6 µM (inactive)

$$$$
>  <compound>
C/C(=C\c1ccc2c(c1)OCO2)[N+](=O)[O-]

>  <system>
MDA-MB-231

>  <GI50>
6.49 µM (inactive)

$$$$
>  <compound>
O[C@H]1[C@H](O)[C@@H](Cn2nnc(-c3ccccc3)c2-c2ccccc2)OCO[C@@H]1Cn1nnc(-c2ccccc2)c1-c1ccccc1

>  <system>
MDA-MB-231

>  <GI50>
6.47 µM (inactive)

$$$$

Recorded GI50 (compound C[N+]1(CCC(=O)c2ccccc2)CCC2CCC(C2)C1 (stereo unspecified) ): > 100 µM (inactive)

Noted for OC1CC(O)c2c(Cl)sc(Cl)c21 (stereo unspecified) : its GI50 reads 32.1 µM (inactive)

Measured GI50, CCOC(=O)c1cc(=O)oc2c1N(C)c1ncccc1N2 : 69.5 µM (inactive)

Per the record, O=C1C[C@H](c2ccccc2)O[C@@H](c2ccccc2)C1 has GI50 of > 100 µM (inactive)

What the record says about Clc1ccc2c(NCCCCCCNc3ccnc4cc(Cl)ccc34)ccnc2c1 : GI50 is 2.22 µM (inactive)

COc1ccc2oc(=O)c(-c3nc4ccccc4s3)cc2c1 yielded GI50 of 18.7 µM (inactive)

###

test system: HL-60; assay: NCI tumour cell line growth inhibition, 48 h
Active and inactive are the calls of the source. Cut-off read from the data, not from the text of the source: active = GI50 up to about 1.1 µM and inactive = higher.
// allowed return values: Yes = active, No = inactive

>  <compound>
CCCCC1(N=[N+]=[N-])C(=O)C2C=CC=C3c4ccccc4N(C1=O)C32 (stereo not given)

>  <class_name>
No

$$$$

Prompt line: Status in this test for c1ccc(NC2(c3nnnn3C3CCCCC3)CCNCC2)cc1 ?
Response line: No

Prompt line: Could you kindly confirm the outcome this assay logged for NC(=O)NC(=O)c1cccc(NC(=O)CF)c1 ?
Response line: No

Prompt line: Hi, do you know how COc1cc(C(C)(C)C)c(OC(=O)/C=C/C(=O)O/C=C/[N+](=O)[O-])c(C(C)(C)C)c1 came out in this test?
Response line: Yes

Prompt line: Can you look up the reported call for N/N=C(/Cc1nc2ccc(C(=O)c3ccccc3)cc2nc1O)C(=O)Nc1ccc([N+](=O)[O-])cc1[N+](=O)[O-] for me?
Response line: No

Prompt line: Just curious, what result did Cc1ccc(/C=N/NS(=O)(=O)c2ccc(/C=C3\NC(=O)NC3=O)cc2)cc1 get here?
Response line: No

Prompt line: Short answer needed: outcome of this test for Cc1c2ccnc(C(=O)NCCN(C)C)c2cc2c3cc(O)ccc3n(C)c12 ?
Response line: Yes

Prompt line: Could you kindly confirm the outcome this assay logged for NC1=Nc2ccccc2Sc2nc3ccccc3n21 ?
Response line: No

Prompt line: Hello, I am checking results. What call was entered for CC1CNC(NS(=O)(=O)c2cc(C(=O)Nc3ccc(Cl)cc3)c(Cl)cc2S)=NN1 (stereo not given) ?
Response line: No

Prompt line: Could you check what this test reported for O=C(CN1CCOCC1)Nc1nc(-c2ccc(Cl)cc2)cs1 ?
Response line: No

Prompt line: State the result this test recorded for CC1(C)N=c2[nH]cnc2=C(C(N)=O)N1 .
Response line: No

Prompt line: Returns: the outcome recorded for Cc1ccc(O)c(C2=CC3=NNC(=O)C3C(c3cccc(Br)c3)C2)c1 (stereo not given) in this assay.
Response line: No

Prompt line: Which outcome was assigned to CCCCCCCCC(=O)NCCN(CCN)C(=O)CCCCCCCC in this test?
Response line: Yes

Prompt line: I'd appreciate the recorded outcome for CN(CCC(=O)O)S(=O)(=O)c1ccccc1 from this test.
Response line: No

Prompt line: Dear all, I need the recorded test outcome for [O-][N+]1=C(c2ccccc2)COc2ccccc21 , thank you.
Response line: No

Prompt line: What classification did CCOC(=O)c1cc(C)n(CN(CCO)Cn2nc(C(=O)OCC)cc2C)n1 end up with in this test?
Response line: No

Prompt line: Just curious, what result did Cc1cc2oc3c(ccc(=O)n3C)c(=O)c2c(C)c1Cl get here?
Response line: No
